assay: Induction of apoptosis in rat HSC-T6 cells assessed as necrotic cells at 80 nM pretreated with TGFbeta-1 for 1 day followed by compound addition and measured after 24 hrs by flow cytometry (reference value: 0.56 %); type: functional
Reported Property: Activity (%)

Molecule	Reported Property	Reported
CN1c2ccccc2C(=O)N2CCc3c([nH]c4ccccc34)C21 (centres undefined)	Activity	0.9
CNC(=O)c1cc(Oc2ccc(NC(=O)Nc3ccc(Cl)c(C(F)(F)F)c3)cc2)ccn1	Activity	0.85
O=C1c2cc(F)cc(F)c2N(c2cccc(F)c2)C2c3[nH]c4ccc(O)cc4c3CCN12 (centres undefined)	Activity	3.62
CC(=O)Oc1ccc2[nH]c3c(c2c1)CCN1C(=O)c2cc(F)cc(F)c2N(c2cccc(F)c2)C31 (centres undefined)	Activity	4.44

====

target: DNA topoisomerase 1 (Homo sapiens); test: Inhibition of Top1 (unknown origin) assessed as inhibition of relaxation of supercoiled pBR322 plasmid DNA at 12.5 uM incubated for 25 mins by ethidium bromide staining based agarose gel electrophoresis analysis relative to control

Compound	inhibition / %
CCOc1ccc2[nH]c3c(c2c1)CCN1C(=O)c2cc(F)cc(F)c2N(c2cccc(F)c2)C31 (stereo not drawn)	50.8
CN1c2ccccc2C(=O)N2CCc3c([nH]c4ccccc34)C21 (stereo not drawn)	3.67
O=C1c2cc(F)cc(F)c2N(c2cccc(F)c2)C2c3[nH]c4ccccc4c3CCN12 (stereo not drawn)	27.7

====

molecular target: DNA topoisomerase 1 (Homo sapiens); assay: Inhibition of Top1 (unknown origin) assessed as inhibition of relaxation of supercoiled pBR322 plasmid DNA at 50 uM incubated for 25 mins by ethidium bromide staining based agarose gel electrophoresis analysis relative to control

Compound	inhibition
O=C1c2cc(F)cc(F)c2N(c2cccc(F)c2)C2c3[nH]c4ccc(O)cc4c3CCN12 (stereo not given)	92.5%
CC(=O)Oc1ccc2[nH]c3c(c2c1)CCN1C(=O)c2cc(F)cc(F)c2N(c2cccc(F)c2)C31 (stereo not given)	94%
O=C1c2cc(F)cc(F)c2N(c2cccc(F)c2)C2c3[nH]c4ccccc4c3CCN12 (stereo not given)	94.4%
COc1ccc2[nH]c3c(c2c1)CCN1C(=O)c2cc(F)cc(F)c2N(c2cccc(F)c2)C31 (stereo not given)	48.4%
O=C1c2cc(F)cc(F)c2N(c2cccc(F)c2)C2c3[nH]c4ccc(Cl)cc4c3CCN12 (stereo not given)	90.1%

====

system: SK-HEP1; assay: Induction of apoptosis in human SK-Hep1 cells assessed as viable cells at 80 nM incubated for 24 hrs by annexin V-FITC/PI staining flow cytometry (reference value: 97.8 %); assay type: functional; details: read-out: Activity

Compound	Tested System	Unit Name	viability at 0.08 µM
CNC(=O)c1cc(Oc2ccc(NC(=O)Nc3ccc(Cl)c(C(F)(F)F)c3)cc2)ccn1 [SORAFENIB]	SK-HEP1	%	94.1
CC(=O)Oc1ccc2[nH]c3c(c2c1)CCN1C(=O)c2cc(F)cc(F)c2N(c2cccc(F)c2)C31 (centres undefined)	SK-HEP1	%	84
CN1c2ccccc2C(=O)N2CCc3c([nH]c4ccccc34)C21 (centres undefined)	SK-HEP1	%	85
O=C1c2cc(F)cc(F)c2N(c2cccc(F)c2)C2c3[nH]c4ccc(O)cc4c3CCN12 (centres undefined)	SK-HEP1	%	73.4

====

system: SK-HEP1; assay: Antiproliferative activity against human SK-HEP1 cells treated for 72 hrs by MTT assay; assay type: functional, cell-based; details: SK-HEP1, 72 h
Reported Property: log10 of IC50 (log10 of the value in µM)

Compound	log10 of IC50
COc1ccc2[nH]c3c(c2c1)CCN1C(=O)c2cc(F)ccc2N(c2cc(F)cc(Br)c2)C31 (centres undefined)	0.62
COc1ccc2[nH]c3c(c2c1)CCN1C(=O)c2cc(F)c(F)cc2N(c2cccc(F)c2)C31 (centres undefined)	0.86
COc1ccc2[nH]c3c(c2c1)CCN1C(=O)c2cc(F)ccc2N(c2cc(C)cc(F)c2)C31 (centres undefined)	0.86
CC(=O)Oc1ccc2[nH]c3c(c2c1)CCN1C(=O)c2cc(F)cc(F)c2N(c2cccc(F)c2)C31 (centres undefined)	-1.22
COc1ccc2[nH]c3c(c2c1)CCN1C(=O)c2cc(F)ccc2N(c2cc(F)cc(F)c2)C31 (centres undefined)	0.60
O=C1c2cc(F)cc(F)c2N(c2cccc(F)c2)C2c3[nH]c4ccc(Cl)cc4c3CCN12 (centres undefined)	-0.96
COc1ccc2[nH]c3c(c2c1)CCN1C(=O)c2cc(F)ccc2N(c2ccc(F)c(F)c2)C31 (centres undefined)	0.13
COc1ccc2[nH]c3c(c2c1)CCN1C(=O)c2cc(F)ccc2N(c2cc(F)ccc2F)C31 (centres undefined)	0.76
